- assay system: MMP-13 (Homo sapiens)
- Construct: made in house; host or cells: baculovirus / insect cells
- assay summary: biochemical
- measurement context: recombinant human MMP-13, MCA peptide substrate 4 μM, pH 7.5, room temperature; read-out: MMP-13 IC50
Mark each entry YES if its IC50 sits below 20 nM, and NO for all others.

Take the compound CCCCSC1CCN(c2ccc(S(=O)(=O)C3(C(=O)NO)CCOCC3)cc2)CC1 and say whether its IC50 is less than 20 nM.
YES

In plain terms, does CN(C)Cc1ccc(COC2CCN(c3ccc(S(=O)(=O)C4(C(=O)NO)CCOCC4)cc3)CC2)cc1 come in under 20 nM for IC50?
YES

Strictly below 20 nM: is that where IC50 of CCCCS(=O)(=O)N1CC(Oc2ccc(S(=O)(=O)C3(C(=O)NO)CCOCC3)cc2)C1 sits?
YES

For O=C(c1ccc(OC(F)(F)F)cc1)N1CCN(c2ccc(S(=O)(=O)C3(C(=O)NO)CCOCC3)cc2)CC1 , is the recorded IC50 below the cut-off of 20 nM?
NO

Decide: IC50 of CC1CC(C)CN(C(=O)C2CCN(c3ccc(S(=O)(=O)C4(C(=O)NO)CCN(C(=O)CN5CCCC5CO)CC4)cc3)CC2)C1 (stereo not shown) strictly below 20 nM?
NO

Does the reported IC50 of the following compound sit strictly below 20 nM? CCCCc1ccc(OC2CCN(c3ccc(S(=O)(=O)C4(C(=O)NO)CCOCC4)cc3)CC2)cc1
YES

Regarding Cc1ccc(OC2CCN(c3ccc(S(=O)(=O)C4(C(=O)NO)CCOCC4)cc3)CC2)c([N+](=O)[O-])c1 , kindly confirm whether its IC50 is beneath 20 nM.
YES
